Let's go through some pIC50 measurements on UniProt:O42275 together.
Sequence (O42275 whole entry): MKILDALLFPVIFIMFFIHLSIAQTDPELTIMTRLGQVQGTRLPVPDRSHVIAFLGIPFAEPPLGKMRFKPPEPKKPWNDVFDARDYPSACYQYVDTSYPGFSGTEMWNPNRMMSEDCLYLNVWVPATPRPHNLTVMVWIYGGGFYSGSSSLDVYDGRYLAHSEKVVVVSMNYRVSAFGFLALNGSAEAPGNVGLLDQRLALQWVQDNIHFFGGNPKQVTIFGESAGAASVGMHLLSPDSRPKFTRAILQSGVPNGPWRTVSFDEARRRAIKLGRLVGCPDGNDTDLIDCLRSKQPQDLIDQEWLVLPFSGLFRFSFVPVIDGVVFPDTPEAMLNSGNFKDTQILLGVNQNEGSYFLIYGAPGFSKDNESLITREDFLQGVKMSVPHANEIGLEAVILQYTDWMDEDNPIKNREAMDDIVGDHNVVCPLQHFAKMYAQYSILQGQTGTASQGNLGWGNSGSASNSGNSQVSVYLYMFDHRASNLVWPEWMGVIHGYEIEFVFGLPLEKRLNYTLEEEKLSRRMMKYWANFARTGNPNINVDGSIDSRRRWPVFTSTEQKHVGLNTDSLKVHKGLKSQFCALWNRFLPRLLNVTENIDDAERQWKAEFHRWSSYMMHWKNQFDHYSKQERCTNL
Reminder that pIC50 is minus the log10 of a molar concentration.

Need pIC50 of CN1C/C(=C\c2ccc(Br)cc2)C(=O)[C@]2(C1)[C@@H](c1ccc(Br)cc1)[C@@H]1CCCCN1[C@@]21C(=O)c2cccc3cccc1c23 , thanks.
4.85

Now consider CN1C/C(=C\c2ccc(Cl)cc2)C(=O)[C@]2(C1)[C@@H](c1ccc(Cl)cc1)[C@@H]1CCCCN1[C@@]21C(=O)c2cccc3cccc1c23 and answer again.
4.94

Now consider Cc1ccccc1/C=C1\CN(C)C[C@@]2(C1=O)[C@@H](c1ccccc1C)[C@@H]1CCCCN1[C@@]21C(=O)c2cccc3cccc1c23 and answer again.
5.41

Now consider CN1C/C(=C\c2ccccc2Br)C(=O)[C@]2(C1)[C@@H](c1ccccc1Br)[C@@H]1CCCCN1[C@@]21C(=O)c2cccc3cccc1c23 and answer again.
4.42

Now consider CN1C/C(=C\c2ccccc2Cl)C(=O)[C@]2(C1)[C@@H](c1ccccc1Cl)[C@@H]1CCCCN1[C@@]21C(=O)c2cccc3cccc1c23 and answer again.
4.67

Now consider CN1C/C(=C\c2ccc(Br)cc2)C(=O)[C@]2(C1)[C@@H](c1ccc(Br)cc1)[C@@H]1CSCN1[C@@]21C(=O)c2cccc3cccc1c23 and answer again.
4.69

Now consider CN1C/C(=C\c2cccc3ccccc23)C(=O)[C@]2(C1)[C@@H](c1cccc3ccccc13)[C@@H]1CSCN1[C@@]21C(=O)c2cccc3cccc1c23 and answer again.
5.02

Now consider CN1C/C(=C\c2ccc([N+](=O)[O-])cc2)C(=O)[C@]2(C1)[C@@H](c1ccc([N+](=O)[O-])cc1)[C@@H]1CSCN1[C@@]21C(=O)c2cccc3cccc1c23 and answer again.
5.34

Now consider CN1C/C(=C\c2ccc(Cl)cc2Cl)C(=O)[C@]2(C1)[C@@H](c1ccc(Cl)cc1Cl)[C@@H]1CSCN1[C@@]21C(=O)c2cccc3cccc1c23 and answer again.
4.64

Now consider CN1C/C(=C\c2ccccc2Br)C(=O)[C@]2(C1)[C@@H](c1ccccc1Br)[C@@H]1CSCN1[C@@]21C(=O)c2cccc3cccc1c23 and answer again.
5.00

Now consider CN1C/C(=C\c2ccccc2)C(=O)[C@]2(C1)[C@@H](c1ccccc1)[C@@H]1CCCCN1[C@@]21C(=O)c2cccc3cccc1c23 and answer again.
4.74

Now consider CN1C/C(=C\c2cccc(F)c2)C(=O)[C@]2(C1)[C@@H](c1cccc(F)c1)[C@@H]1CCCCN1[C@@]21C(=O)c2cccc3cccc1c23 and answer again.
4.49

Now consider COc1ccccc1/C=C1\CN(C)C[C@@]2(C1=O)[C@@H](c1ccccc1OC)[C@@H]1CCCCN1[C@@]21C(=O)c2cccc3cccc1c23 and answer again.
4.94
